tested on: ATCC27853; experiment: MIC determination, control strain; format: cell-based; conditions: EA=P. clypearia 10% ethanol extract, read-out: MIC (single use)
QUANTITY_KIND: MIC (µg/mL)
Answers are plain numbers, in µg/mL.

Example compounds with recorded MIC:
[[record]]
compound = "CC(C)(O/N=C(\\C(=O)N[C@@H]1C(=O)N2C(C(=O)[O-])=C(C[n+]3ccccc3)CS[C@H]12)c1csc(N)n1)C(=O)O [CAZ, Ceftazidime]"
target_or_system = "ATCC27853"
quantity_kind = "MIC"
reported = 4

[[record]]
compound = "C[C@@H](O)[C@H]1C(=O)N2C(C(=O)O)=C(SCCN=CN)C[C@H]12 [IMP, imipenem]"
target_or_system = "ATCC27853"
quantity_kind = "MIC"
reported = 4

[[record]]
compound = "C[C@H]1COc2c(N3CCN(C)CC3)c(F)cc3c(=O)c(C(=O)O)cn1c23 [LVX, Levofloxacin]"
target_or_system = "ATCC27853"
quantity_kind = "MIC"
reported = 1

[[record]]
compound = "CCN1CCN(C(=O)N[C@@H](C(=O)N[C@@H]2C(=O)N3C(C(=O)O)=C(CSc4nnnn4C)CS[C@H]23)c2ccc(O)cc2)C(=O)C1=O [CFP, Cefoperazone]"
target_or_system = "ATCC27853"
quantity_kind = "MIC"
reported = 8


Read the next record carefully.
The compound listed as NCC[C@H](O)C(=O)N[C@@H]1C[C@H](N)[C@@H](O[C@H]2O[C@H](CN)[C@@H](O)[C@H](O)[C@H]2O)[C@H](O)[C@H]1O[C@H]1O[C@H](CO)[C@@H](O)[C@H](N)[C@H]1O [AMK, Amikacin] has a reported MIC of 2
